- system under test: Chymotrypsin-C (Homo sapiens)
- Sequence (Q99895 whole entry): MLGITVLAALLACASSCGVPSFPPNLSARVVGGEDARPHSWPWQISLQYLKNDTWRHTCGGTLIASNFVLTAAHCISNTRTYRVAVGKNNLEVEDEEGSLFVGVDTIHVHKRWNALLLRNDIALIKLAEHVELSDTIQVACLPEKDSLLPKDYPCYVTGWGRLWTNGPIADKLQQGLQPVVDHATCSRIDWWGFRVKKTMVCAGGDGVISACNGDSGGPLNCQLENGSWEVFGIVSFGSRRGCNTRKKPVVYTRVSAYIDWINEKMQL
- test description: Selectivity interaction (Serine protease panel) EUB0000735a CTRC
observed property: IC50

Exercise: Return IC50 for the following compound: CC(=O)C1=C(C)N(c2cccc(C(F)(F)F)c2)C(=O)N[C@@H]1c1ccc(C#N)nc1
Solution: > 30 µM

---

- system under test: Tyrosine-protein kinase BTK (Homo sapiens, UniProt Q06187)
- test description: Selectivity interaction (KinomeScan (DiscoverX, competition-binding assay)) EUB0000353a BTK
observed property: Kd (µM)
Just the number please, in µM, no unit attached.

Exercise: Return Kd for the following molecule: CN(C)[C@@H]1CCN(c2cc(-c3ccccc3)nc3ccnn23)C1 [(R)-ZINC-3573]
Solution: 27

---

- system under test: Platelet-derived growth factor receptor beta (Homo sapiens)
- test description: Selectivity interaction (NanoBRET assay (HEK293T cells)) EUB0000321b PDGFRB
observed property: pIC50
FYI, pIC50 means -log10 of a concentration in mol per litre.

Exercise: Return pIC50 for the following molecule: CN1CCN(C(=O)C(C)(C)c2ccc(C(=O)Nc3cn4cc(-c5ccncc5)ccc4n3)cc2)CC1
Solution: 5.52

---

- system under test: Vascular endothelial growth factor receptor 2 (Homo sapiens)
- test description: Selectivity interaction (Kinase panel (literature or Upstate/Millipore)) EUB0000665a KDR
observed property: IC50 (nM)
Just the number please, in nM, no unit attached.

Exercise: Return IC50 for the following molecule: Cn1cc(-c2[nH]c3cc(NC(=O)[C@H](N)C4CCCCC4)cc4c3c2C=NNC4=O)cn1
Solution: 8

---

- system under test: Gamma-aminobutyric acid receptor subunit alpha-1 (Homo sapiens)
- test description: Selectivity interaction (GPCR panel (PDSP screen)) EUB0000302b GABRA1
observed property: pKi
FYI, pKi means -log10 of a concentration in mol per litre.

Exercise: Return pKi for the following compound: CCNC(=O)c1cc2c(N3CCOC[C@@H]3C)ccnc2[nH]1
Solution: 5.82

---

- system under test: UniProtKB Q86Y97
- test description: Selectivity interaction (Methyltransferase panel (Scintillation proximity assay (SPA))) EUB0000212b SUV420H2
pEC50: −log10 of the molar value.
observed property: pEC50

Exercise: Send back UniProtKB Q86Y97 pEC50 of COc1cc2c(cc1OCCCN1CCCC1)N=C(N)C21CCC1 only.
Solution: < 4.30

---

- system under test: Histone-lysine N-methyltransferase SETDB1 (Homo sapiens)
- test description: Selectivity interaction (Methyltransferase panel) EUB0000196bCl SETDB1
pEC50: −log10 of the molar value.
observed property: pEC50

Exercise: Return pEC50 for the following compound: O=C([C@@H](Cc1cccc(C(F)(F)F)c1)NS(=O)(=O)c1cc(F)c2c(c1)CCNC2)N1CCCC1
Solution: < 5.00

---

- system under test: UniProt P32247
- test description: Selectivity interaction (Enzyme panel (ion channels, GPCRs, other targets)) EUB0000196bCl BRS3
observed property: Ki
Give the number first and the unit second.

Exercise: Return Ki for the following compound: O=C([C@@H](Cc1cccc(C(F)(F)F)c1)NS(=O)(=O)c1cc(F)c2c(c1)CCNC2)N1CCCC1
Solution: 8.1 µM

---

- system under test: UniProt:P14780
- test description: Selectivity interaction (MMPs panel (Panlabs panel, Bayer)) EUB0000725a MMP9
pIC50: −log10 of the molar value.
observed property: pIC50

Exercise: Return pIC50 for the following compound: O=C(O)[C@@H]1[C@@H](Cn2nnc3ccccc3c2=O)CC[C@H]1C(=O)c1ccc(OCCC2CCOCC2)cc1
Solution: < 5.00

---

- system under test: Histone-lysine N-methyltransferase SMYD3 (Homo sapiens, UniProt Q9H7B4)
- test description: Selectivity interaction (Methyltransferase panel (Scintillation proximity assay (SPA))) EUB0000212b SMYD3
observed property: EC50

Exercise: Return EC50 for the following compound: COc1cc2c(cc1OCCCN1CCCC1)N=C(N)C21CCC1
Solution: > 50 µM

---

- system under test: Tyrosine-protein kinase ABL1 (Homo sapiens, UniProt P00519)
- test description: Selectivity interaction (NanoBRET assay (HEK293T cells)) EUB0000723a ABL1
observed property: IC50

Exercise: Return IC50 for the following compound: O=C(NCCCN1CCOC1=O)c1cnc(NCc2cc(Br)ccc2Br)nc1NC1CCCC1
Solution: > 10 µM

---

- system under test: Gamma-aminobutyric acid receptor subunit alpha-1 (Homo sapiens)
- test description: Selectivity interaction (GPCR panel (PDSP screen)) EUB0000544a GABRA1
observed property: pKi
FYI, pKi means -log10 of a concentration in mol per litre.

Exercise: Return pKi for the following molecule: COc1ccc2c(c1)O[C@@H](c1ccc(OC)c(OC)c1)C[C@H]2NC(=O)C1(c2ccc3c(c2)OC(F)(F)O3)CC1
Solution: 7.71

---

- system under test: Bromodomain-containing protein 4 (Homo sapiens, UniProt O60885)
- test description: Selectivity interaction (TR-FRET assay) EUB0000191c BRD4
pIC50: −log10 of the molar value.
observed property: pIC50

Exercise: Return pIC50 for the following compound: Cc1cc2c(cc1N1C(=O)c3cccc4c(CCCO)ccc(c34)C1=O)n(C)c(=O)n2C
Solution: < 4.70

---

- system under test: Histone-lysine N-methyltransferase EHMT1 (Homo sapiens, UniProt Q9H9B1)
- Sequence (Q9H9B1 whole entry): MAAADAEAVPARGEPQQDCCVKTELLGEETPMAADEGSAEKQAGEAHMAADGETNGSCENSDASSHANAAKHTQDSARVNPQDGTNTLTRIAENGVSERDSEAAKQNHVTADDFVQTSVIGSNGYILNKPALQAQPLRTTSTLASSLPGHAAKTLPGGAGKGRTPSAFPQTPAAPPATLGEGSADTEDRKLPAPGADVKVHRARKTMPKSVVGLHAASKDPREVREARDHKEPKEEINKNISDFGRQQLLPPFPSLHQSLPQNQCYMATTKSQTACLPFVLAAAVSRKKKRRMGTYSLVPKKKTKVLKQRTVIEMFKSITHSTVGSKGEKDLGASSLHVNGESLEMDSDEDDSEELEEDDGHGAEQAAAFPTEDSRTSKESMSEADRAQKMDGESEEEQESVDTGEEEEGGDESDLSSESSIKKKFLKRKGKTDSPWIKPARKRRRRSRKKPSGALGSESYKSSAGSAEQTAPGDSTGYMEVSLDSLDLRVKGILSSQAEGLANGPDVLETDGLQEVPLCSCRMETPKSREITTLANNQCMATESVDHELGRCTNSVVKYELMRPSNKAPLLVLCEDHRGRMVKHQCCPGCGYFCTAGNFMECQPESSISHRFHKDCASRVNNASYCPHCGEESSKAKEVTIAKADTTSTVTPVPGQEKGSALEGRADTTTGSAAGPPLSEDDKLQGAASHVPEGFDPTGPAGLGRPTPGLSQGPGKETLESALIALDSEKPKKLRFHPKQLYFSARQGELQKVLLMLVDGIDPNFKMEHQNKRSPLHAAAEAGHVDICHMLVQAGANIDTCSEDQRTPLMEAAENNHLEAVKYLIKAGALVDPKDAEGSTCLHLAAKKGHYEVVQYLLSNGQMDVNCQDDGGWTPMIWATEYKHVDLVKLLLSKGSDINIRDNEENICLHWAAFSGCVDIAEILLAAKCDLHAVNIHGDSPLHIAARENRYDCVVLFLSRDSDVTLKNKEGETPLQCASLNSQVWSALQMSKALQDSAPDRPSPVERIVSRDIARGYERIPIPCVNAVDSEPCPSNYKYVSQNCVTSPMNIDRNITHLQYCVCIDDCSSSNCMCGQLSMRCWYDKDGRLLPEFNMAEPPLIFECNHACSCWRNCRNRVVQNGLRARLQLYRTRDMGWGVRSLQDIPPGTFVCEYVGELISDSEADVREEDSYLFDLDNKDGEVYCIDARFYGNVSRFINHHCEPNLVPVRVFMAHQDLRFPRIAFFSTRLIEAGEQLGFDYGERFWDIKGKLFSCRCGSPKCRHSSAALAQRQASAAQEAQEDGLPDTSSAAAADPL
- test description: Selectivity interaction (Methyltransferase panel) EUB0000196bCl EHMT1
pEC50: −log10 of the molar value.
observed property: pEC50

Exercise: Return pEC50 for the following compound: O=C([C@@H](Cc1cccc(C(F)(F)F)c1)NS(=O)(=O)c1cc(F)c2c(c1)CCNC2)N1CCCC1
Solution: < 5.00

---

- system under test: Histone-lysine N-methyltransferase KMT5C (Homo sapiens)
- test description: Selectivity interaction (Methyltransferase panel) EUB0000196bCl SUV420H2
pEC50: −log10 of the molar value.
observed property: pEC50

Exercise: Return pEC50 for the following compound: O=C([C@@H](Cc1cccc(C(F)(F)F)c1)NS(=O)(=O)c1cc(F)c2c(c1)CCNC2)N1CCCC1
Solution: < 5.00

---

- system under test: Serine/threonine-protein kinase 32C (Homo sapiens, UniProt Q86UX6)
- test description: Selectivity interaction (ScanMAX (DiscoverX, competition-binding assay)) EUB0000285b STK32C
observed property: Kd

Exercise: Return Kd for the following compound: O=C(NCc1ccccc1)c1ccc(S(=O)(=O)NCc2ccccc2)cc1
Solution: > 10 µM

---

- system under test: Bromodomain-containing protein 1 (Homo sapiens, UniProt O95696)
- Sequence (O95696 whole entry): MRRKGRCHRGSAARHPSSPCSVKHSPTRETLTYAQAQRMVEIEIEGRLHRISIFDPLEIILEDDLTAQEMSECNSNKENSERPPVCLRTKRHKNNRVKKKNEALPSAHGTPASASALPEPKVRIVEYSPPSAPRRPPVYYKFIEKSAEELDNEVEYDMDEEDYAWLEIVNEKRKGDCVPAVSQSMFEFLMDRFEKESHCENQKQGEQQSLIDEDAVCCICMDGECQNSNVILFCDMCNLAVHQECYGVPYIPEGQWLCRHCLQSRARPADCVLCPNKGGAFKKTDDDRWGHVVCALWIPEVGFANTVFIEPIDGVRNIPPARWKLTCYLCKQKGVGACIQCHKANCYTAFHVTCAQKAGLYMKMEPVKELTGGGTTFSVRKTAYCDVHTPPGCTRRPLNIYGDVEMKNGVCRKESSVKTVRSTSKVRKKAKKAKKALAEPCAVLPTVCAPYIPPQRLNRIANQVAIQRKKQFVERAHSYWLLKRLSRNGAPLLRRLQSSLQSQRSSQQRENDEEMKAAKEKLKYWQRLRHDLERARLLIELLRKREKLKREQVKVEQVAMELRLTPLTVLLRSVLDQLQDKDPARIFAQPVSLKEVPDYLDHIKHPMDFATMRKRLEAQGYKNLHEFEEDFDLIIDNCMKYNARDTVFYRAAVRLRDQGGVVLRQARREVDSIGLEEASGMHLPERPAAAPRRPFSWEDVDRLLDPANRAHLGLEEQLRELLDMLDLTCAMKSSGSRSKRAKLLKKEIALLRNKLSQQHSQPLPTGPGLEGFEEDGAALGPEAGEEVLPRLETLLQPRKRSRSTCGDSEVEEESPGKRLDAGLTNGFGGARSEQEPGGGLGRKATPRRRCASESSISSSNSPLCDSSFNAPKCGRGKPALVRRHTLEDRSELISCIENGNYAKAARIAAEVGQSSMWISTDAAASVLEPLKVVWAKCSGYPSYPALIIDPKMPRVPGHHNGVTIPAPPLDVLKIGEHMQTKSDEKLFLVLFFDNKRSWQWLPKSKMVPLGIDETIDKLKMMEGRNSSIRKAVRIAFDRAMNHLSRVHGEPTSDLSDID
- test description: Selectivity interaction (BROMOscan™ panel (DiscoverX)) EUB0000256b BRD1
observed property: pKi
FYI, pKi means -log10 of a concentration in mol per litre.

Exercise: Return pKi for the following compound: CN1C[C@H](Nc2cnn(C)c(=O)c2Br)C[C@H](c2ccccc2)C1
Solution: 6.96

---

- system under test: Histone-lysine N-methyltransferase EHMT2 (Homo sapiens, UniProt Q96KQ7)
- test description: Selectivity interaction (Methyltransferase panel (radioactive enzyme assay)) EUB0000216b EHMT2
observed property: IC50

Exercise: Return IC50 for the following compound: CC(C)N(CCCNC(=O)Nc1ccc(C(C)(C)C)cc1)C[C@H]1O[C@@H](n2cc(Br)c3c(N)ncnc32)[C@H](O)[C@@H]1O
Solution: > 100 µM

---

- system under test: Sodium-dependent dopamine transporter (Homo sapiens)
- test description: Selectivity interaction (Eurofins-Panlabs radioligand binding assay) EUB0000716a SLC6A3
observed property: pKi
FYI, pKi means -log10 of a concentration in mol per litre.

Exercise: Return pKi for the following compound: Cc1c[nH]c2nccc(Oc3c(F)cc(Nc4cc(Cl)nc(N)n4)cc3F)c12 [BAY-549]
Solution: 7.41

---

- system under test: Stromelysin-1 (Homo sapiens)
- test description: Selectivity interaction (MMPs panel (Panlabs panel, Bayer)) EUB0000725a MMP3
observed property: IC50

Exercise: Return IC50 for the following compound: O=C(O)[C@@H]1[C@@H](Cn2nnc3ccccc3c2=O)CC[C@H]1C(=O)c1ccc(OCCC2CCOCC2)cc1 [BAY-694]
Solution: > 10 µM

---

- system under test: Leucine-rich repeat serine/threonine-protein kinase 2 (Homo sapiens, UniProt Q5S007)
- Sequence (Q5S007 whole entry): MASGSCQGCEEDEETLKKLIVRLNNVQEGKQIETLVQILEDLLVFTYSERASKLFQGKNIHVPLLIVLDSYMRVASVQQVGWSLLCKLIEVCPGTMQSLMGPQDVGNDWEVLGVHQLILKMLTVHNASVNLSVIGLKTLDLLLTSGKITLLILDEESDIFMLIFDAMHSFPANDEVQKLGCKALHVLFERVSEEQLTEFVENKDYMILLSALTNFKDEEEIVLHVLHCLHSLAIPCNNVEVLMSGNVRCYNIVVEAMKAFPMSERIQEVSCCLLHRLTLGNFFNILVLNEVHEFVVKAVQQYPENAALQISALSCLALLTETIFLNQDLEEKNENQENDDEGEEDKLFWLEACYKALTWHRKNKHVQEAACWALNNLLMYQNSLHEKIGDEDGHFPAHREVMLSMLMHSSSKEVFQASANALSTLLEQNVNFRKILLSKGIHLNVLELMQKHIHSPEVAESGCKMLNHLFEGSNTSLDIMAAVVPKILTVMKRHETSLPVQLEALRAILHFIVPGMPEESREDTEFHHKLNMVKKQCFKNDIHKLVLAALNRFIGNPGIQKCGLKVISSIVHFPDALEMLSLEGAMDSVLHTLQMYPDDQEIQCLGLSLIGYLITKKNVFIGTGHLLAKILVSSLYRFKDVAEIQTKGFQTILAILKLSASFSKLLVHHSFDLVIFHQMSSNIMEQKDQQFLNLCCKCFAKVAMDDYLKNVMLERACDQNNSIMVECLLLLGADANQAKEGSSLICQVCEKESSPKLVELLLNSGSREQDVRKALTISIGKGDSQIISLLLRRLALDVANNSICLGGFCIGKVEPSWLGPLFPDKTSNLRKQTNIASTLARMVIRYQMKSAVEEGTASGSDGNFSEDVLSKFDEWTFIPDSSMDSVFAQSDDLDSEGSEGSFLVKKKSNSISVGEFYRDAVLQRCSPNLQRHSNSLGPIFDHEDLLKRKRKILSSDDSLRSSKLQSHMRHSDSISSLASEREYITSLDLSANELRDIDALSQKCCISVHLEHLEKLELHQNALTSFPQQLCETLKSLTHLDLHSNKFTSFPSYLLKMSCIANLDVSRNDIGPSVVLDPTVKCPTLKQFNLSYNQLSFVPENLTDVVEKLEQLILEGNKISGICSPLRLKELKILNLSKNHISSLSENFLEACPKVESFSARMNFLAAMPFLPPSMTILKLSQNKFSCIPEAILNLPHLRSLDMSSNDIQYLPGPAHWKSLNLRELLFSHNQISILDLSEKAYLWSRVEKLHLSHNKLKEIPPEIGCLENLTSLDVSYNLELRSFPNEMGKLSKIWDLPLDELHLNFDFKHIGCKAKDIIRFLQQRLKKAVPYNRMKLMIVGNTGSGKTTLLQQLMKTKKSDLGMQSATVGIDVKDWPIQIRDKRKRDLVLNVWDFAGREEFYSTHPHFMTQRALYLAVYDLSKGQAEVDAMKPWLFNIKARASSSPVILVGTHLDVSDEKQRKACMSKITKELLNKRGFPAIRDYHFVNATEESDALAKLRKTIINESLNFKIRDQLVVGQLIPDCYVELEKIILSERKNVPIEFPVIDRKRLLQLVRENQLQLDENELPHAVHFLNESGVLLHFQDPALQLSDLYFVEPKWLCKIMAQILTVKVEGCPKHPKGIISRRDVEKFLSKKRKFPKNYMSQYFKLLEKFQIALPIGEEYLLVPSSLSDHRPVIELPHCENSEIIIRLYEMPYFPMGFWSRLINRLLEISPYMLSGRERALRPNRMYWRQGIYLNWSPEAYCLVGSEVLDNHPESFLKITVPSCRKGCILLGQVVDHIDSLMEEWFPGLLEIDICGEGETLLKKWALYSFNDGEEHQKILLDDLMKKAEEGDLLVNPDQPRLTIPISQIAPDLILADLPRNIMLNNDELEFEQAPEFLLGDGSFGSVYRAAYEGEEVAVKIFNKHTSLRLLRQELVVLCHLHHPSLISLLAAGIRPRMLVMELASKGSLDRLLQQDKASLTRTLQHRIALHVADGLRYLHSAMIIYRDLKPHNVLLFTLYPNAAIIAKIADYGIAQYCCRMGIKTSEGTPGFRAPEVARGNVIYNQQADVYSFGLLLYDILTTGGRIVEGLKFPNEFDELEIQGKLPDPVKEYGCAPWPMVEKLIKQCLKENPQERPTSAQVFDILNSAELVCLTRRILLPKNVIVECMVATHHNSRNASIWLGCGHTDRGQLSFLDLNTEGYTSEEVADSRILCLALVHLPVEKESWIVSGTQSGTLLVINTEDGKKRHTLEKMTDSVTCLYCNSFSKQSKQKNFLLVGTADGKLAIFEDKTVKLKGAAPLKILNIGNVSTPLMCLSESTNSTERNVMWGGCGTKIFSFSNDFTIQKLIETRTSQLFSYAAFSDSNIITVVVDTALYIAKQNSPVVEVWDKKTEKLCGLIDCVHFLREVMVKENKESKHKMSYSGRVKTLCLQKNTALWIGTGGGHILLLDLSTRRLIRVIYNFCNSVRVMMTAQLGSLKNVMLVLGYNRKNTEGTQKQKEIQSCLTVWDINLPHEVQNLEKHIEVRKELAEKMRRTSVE
- test description: Selectivity interaction (NanoBRET assay (HEK293T cells)) EUB0000705a LRRK2
observed property: IC50

Exercise: Return IC50 for the following compound: CN1CCN(C(=O)C(C)(C)c2ccc(C(=O)Nc3cn4cc(-c5cc(C(C)(C)C)cc(C(C)(C)C)c5)ccc4n3)cc2)CC1
Solution: > 10 µM

---

- system under test: Sigma non-opioid intracellular receptor 1 (Homo sapiens, UniProt Q99720)
- test description: Selectivity interaction (GPCR panel (PDSP screen)) EUB0000289bCl SIGMAR1
observed property: Ki (nM)
Just the number please, in nM, no unit attached.

Exercise: Return Ki for the following compound: CCCCN(CCCC)C(=O)CN1C[C@@H](c2cc(OC)c3c(c2)OCO3)[C@H](C(=O)O)[C@H]1CC(C)(C)CCC
Solution: 289
